experiment: soluble on expression in E. coli; label from the status in PepcDB or PDB records
reported_property: soluble on expression in E. coli

>>> result("MKFRRSGRLVDLTNYLLTHPHELIPLTFFSERYESAKSSISEDLTIIKQTFEQQGIGTLLTVPGAAGGVKYIPKMKQAEAEEFVQTLGQSLANPERILPGGYVYLTDILGKPSVLSKVGKLFASVFAEREIDVVMTVATKGIPLAYAAASYLNVPVVIVRKDNKVTEGSTVSINYVSGSSNRIQTMSLAKRSMKTGSNVLIIDDFMKAGGTINGMINLLDEFNANVAGIGVLVEAEGVDERLVDEYMSLLTLSTINMKEKSIEIQNGNFLRFFKDNLLKNGETESHHHHHH")
"soluble"
>>> result("KSLTLVLHRDSGSLGFNIIGGRPSVDNHDGSSSEGIFVSKIVDSGPAAKEGGLQIHDRIIEVNGRDLSRATHDQAVEAFKTAKEPIVVQVLRRT")
"soluble"
>>> result("MRSRVLWGAARWLWPRRAVGPARRPLSSGSPPLEELFARGGPLRTFLERQAGSEAHLKVRRPELLAVIKLLNEKEQELRETEHLLHDENEDLRKLAENEITLCQKEITQLKHQIILLLVPSEETDENDLILEVTAGVGGQEAMLFTSEIFDMYQQYAAFKRWHFETLEYFPSELGGLRHASASIGGSEAYRHMKFEGGVHRVQRVPKTEKQGRVHTSTMTVAILPQPTEINLVINPKDLRIDTKRASGAGGQHVNTTDSAVRIVHLPTGVVSECQQERSQLKNKELAMTKLRAKLYSMHLEEEINKRQNARKIQIGSKGRSEKIRTYNFPQNRVTDHRINKTLHDLETFMQGDYLLDELVQSLKEYADYESLVEIISQKV")
"soluble"
>>> result("MRLLDIWMRSAAALMLLSGAAFADVTVSQSNDPSVSLGGQLSALLGAERSALGTLPAQRLEQVAAAVARPEAKPEAPVKAVATKGNRGAKAADDAPAPRYDEAWLASQPATAKDSDEWKCLATALYFEARGESIQGQFAVAEVIMNRVDRPGYPGSICGVVRQGGQFSFMFDGKPETIREKAAFQRAGKIAALMLAGAPRQLTQGATHFHTRAVRPGWAHRFPRTAAIGAHLFYRQPGGS")
"not soluble"
>>> result("MRNLIISAALVAASLFGMSAQAAEPIESGKQYVELTSAVPVAVPGKIEVIELFWYGCPHCYAFEPTINPWVEKLPSDVNFVRIPAMFGGPWDAHGQLFITLDTMGVEHKVHAAVFEAIQKGGKRLTDKNDMADFVATQGVNKDDFLKTFDSFAVKGKIAQYKELAKKYEVTGVPTMIVNGKYRFDLGSAGGPEKTLQVADQLIDKERAAAKAAK")
"not soluble"

Next:
soluble on expression in E. coli for MSTYSSPFSRLLHPFSSPPLRPHQDSTTRQTVFIYSSPPVNSSMATDNVRLERMEIGMQLLLLRMAEKDGEAEKLARAELITEANLGGQGETTQLNPLVPVSKATAEKLSNELDEVGRNRTARWSKSGRTCVVS ?
not soluble

---

assay: soluble on expression in E. coli; label from the status in PepcDB or PDB records
reported_property: soluble on expression in E. coli

# annotated cases, reported soluble on expression in E. coli shown
>>> result("MTTFPTLDPELAAALTMLPKVDFADLPNARATYDALIGAMLADLSFDGVSLRELSAPGLDGDPEVKIRFVTPDNTAGPVPVLLWIHGGGFAIGTAESSDPFCVEVARELGFAVANVEYRLAPETTFPGPVNDCYAALLYIHAHAEELGIDPSRIAVGGQSAGGGLAAGTVLKARDEGVVPVAFQFLEIPELDDRLETVSMTNFVDTPLWHRPNAILSWKYYLGESYSGPEDPDVSIYAAPSRATDLTGLPPTYLSTMELDPLRDEGIEYALRLLQAGVSVELHSFPGTFHGSALVATAAVSERGAAEALTAIRRGLRSLSPVS")
"soluble"
>>> result("MGSDKIHHHHHHMKNLFLFCRAGYEKECAAEIQQRAAEMNVGGFVKTTNNDAYVIYQCFEDDGADTLAKMLPLNSLIFARQMFAASELHSDLPEQDRVGPLVASLLEADVTKCGELRVETPDTNEAKELSAFCRKFTVPLRQGLKKVGVLLDKENGRRPIIHVCFVGPGKAYVGYSLSNNSSPHFMGIPRLRMAADAPSRSSLKLDEAFGAFLTKEEQEMRCRSGLKAVDLGACPGGWTYQLVRRGMMVAAVDNGPMDEKLMETGQVKHYRADGFRFEPPRKNIYWLVCDMVEKPSRVAELMEAWAINGWFKEAIFNLKLPMKSRYKEVRVILDTMGEIFKENEIDYRLQCKHLYHDRDEVTVHLWIFPEKGVSYAEMG")
"not soluble"
>>> result("AIELVPEHQTVPVSIGVPATLRCSMKGEAIGNYYINWYRKTQGNTMTFIYREKDIYGPGFKDNFQGDIDIAKNLAVLKILAPSERDEGSYYCACDTLGMGGEYTDKLIFGKGTRVTVEPRSQPHTKPSVFVMKNGTNVACLVKEFYPKDIRINLVSSKKITEFDPAIVISPSGKYNAVKLGKYEDSNSVTCSVQHDNKTVHSTDFEVKTDSTDHVKPKETENTKQPSKS")
"soluble"
>>> result("MGSDKIHHHHHHMKVLLTRPEGRNQQMADALTQLGIGYHLCPLLEITPSNTPPKASFFSADKLVFISANAVYFAANNLNNHFPMHCEYFAVGEATQMALAEYQVVSQSAPSSQQDSEGLLSLSQLQDVELQKITIVRGEGGRETLAQTLSERGANVDYWQVYQRSKPALDPKSVCQQWQDLGIDTLVLTSGEALANLMELVPKELFAWLRSCHMIVPSHRVQVQAISQGFHRVSNANGASTQAILTALAL")
"not soluble"

Return reported soluble on expression in E. coli; argument: MGSDKIHHHHHHMAFVGFKKSGKTTTIEKVARVLKEKGYRVAIVKSMHSEFDRPGTDTWKFSRIADSVLVHAKDTDALLFKAKDINALFSMISSDVVLIEGFKSIKHVPKVICARSEDEVRELNDGLAIAVSGVIASQGVKEVDGLPVIDGTREPEKLAELVLKRGFMLPNIDCGLCGFNCEQMAKLIVKGEKSVNDCVVLSSRPKVIIKIDGQPLYLKDWVQELVEKTIKGMLSAMKGYREGKRIEIIING
not soluble

---

experiment: soluble on expression in E. coli; label from the status in PepcDB or PDB records
reported_property: soluble on expression in E. coli

Solved entries:
>>> result("MAHHHHHHMCPYEERQELRISMGFAGRRPNLTFTSDTMDAHAYLVRHWALNAIAESAGKGMSVQRDSIPFLARSQHSIVNENKMTFLRPDGKIKYNIPKHWLLESDSSVNFLNASPGPVLPSEADNLLVCCTIYEERPEKCMRVYRVRTREDYIAVNQEILAAKCQLLEMNEVNGRNSMRISSRSTRASQQKERLGQTQRVLRTSMERKSINTAADSAGLPFSAFALSGLVSNAAFTIHKTDTSRQINIIHSFLRTEPTCKATIARSIVGNNVTLGPDVRITNSIILDNAEIGAGAIISNSVIGSSAMVNSGVRVVSCTVGPQCLVESNETDRVIRA")
"not soluble"
>>> result("MGEQPIFSTRAHVFQIDPNTKKNWVPTSKHAVTVSYFYDSTRNVYRIISLDGSKAIINSTITPNMTFTKTSQKFGQWADSRANTVYGLGFSSEHHLSKFAEKFQEFKEAAR")
"soluble"
>>> result("MGSDKIHHHHHHAAVLSGCEFNEDFCIRNGELVAWCDFSGIRETPPVPEERHIIAFPSGMDIPSGEQMTFTQDTLRQSIPQGEYQFLFYTGNYEVSDIRDYHEARLMARTDTLEGEVYISGVQKFCCSAGFSQRLEYQRPKRVPITPSAFVQRLNIQINVSGNITPLAGLQGTLTGISTGRYLVSRERTGNASVTSLFSRKPETDRWKTSLYAFGFNPAAENILSVKIEMDGKDSVFNEEQKVDLTPYLRGFDSDELSLELDLHIGKELTIGEPVVIPDWEDIPETELPNYN")
"not soluble"
>>> result("MKDLGAEHLAGHEGVQLLGLLNVYLEQEERFQPREKGLSLIEATPENDNTLCPGLRNAKVEDLRSLANFFGSCTETFVLAVNILDRFLALMKVKPKHLSCIGVCSFLLAARIVEEDCNIPSTHDVIRISQCKCTASDIKRMEKIISEKLHYELEATTALNFLHLYHTIILCHTSERKEILSLDKLEAQLKACNCRLIFSKAKPSVLALCLLNLEVETLKSVELLEILLLVKKHSKINDTEFFYWRELVSKCLAEYSSPECCKPDLKKLVWIVSRRTAQNLHNSYYSVPELPTIPEGGCFDESESEDSCEDMSCGEESLSSSPPSDQECTFFFNFKVAQTLCFPSLEHHHHHH")
"not soluble"
>>> result("MDFQHWLHEAVNQLRDSDSPRRDAEILLEYVTGKGRTYIMAFGETPLTDVQQQQLADLLQRRKQGEPIAYLTGLREFWSLPLFVSPATLIPRPDTECLVEQALARLPVKTCRILDLGTGTGAIALALACERPDCEVTAVDRMPDAVALAIRNAEHLAIRNVRILQSCWFSALSGQQFDMIVSNPPYIDAQDPHLSEGDVRFEPRSALVADENGMADLTHIIDNARQMLTPGGFLLLEHGWQQGEAVRAVFRRSGYSDVETCRDYGGNERVTCGRFTP")
"not soluble"

Count: 2. Required value per item: soluble on expression in E. coli.
1. MGSDKIHHHHHHMLMDSLQEIICEKRTYTRLYHSHKHAYSQFLFPLEGSIDLETEGRQVKLNPDHFLYIPPQCEHRFRSIGRNECLVLDVPLHAMKIDEYRAGSGIEAALDPFWSSIRYLLTEEAKAGTANSLHMLVQYIKEKLQSHSYASIAYIHSHLFERLTIKKLAEIEHYHPAYYSSWFKKQTGKSPQNYIADLRLEEAKRMLMERNETLTVVSEALGFQNLSSFTRWFTKSTGMPPRLYRNTLYSDKK
2. MGSDKIHHHHHHMANLLSTCTSESGNIQHISPQNAGWEYVGFDVWQLKAGESITLPSDERERCLVLVAGLASVKAADSFFYRIGQRMSPFERIPAYSVYLPHHTEAKVTAETDLELAVCSAPGFGELPVRLISPQEVGVEHRGKGRNQRLVHNILPDSQLADSLLVVEVYTNEGDTSSWPAHKHDTAVEGQETYLEETYYHRFNPPQGFCLQRVYTDDRSLDECMAVYNRDVVKVPKGYHPVATIAGYDNYYLNVMAGPLRKWRFTWEENHAWINSPDYPR

1. not soluble
2. not soluble

Look at each sequence and report its soluble on expression in E. coli.
1. MCGRFVLKATPEEIADYLDLIGLEDFPARFNIAPTQPILVVMEGEQQERGSNLPNRRAVLVRWGFMPGWVKDPKDFPLLINARSETAIGKASFRAAMRHRRVLIPATGFYEWRRPPKEEGGKAQPYFIRPKNGGIVAFAGLMETWSSADGSEVDTGAILTTAANAAIGRIHDRMPVVIAPEDFSRWLDCKTQEPREVADLMRPVQGDFFEMIPVSDKVNKVANVGADLIDPVPESAPLAKVRPAKDDGQMSLFLEHHHHHH
2. MSLDSISLHKIFYKVLKNNTLPECQVIAAEGLCKLYLADIFNDDDLFETLILSYFSPSNSSNEGLIQAFAFCIPVYSYSHVLHQQRITKIASDVLLRLYMLWVDFQANEETDENIETMLKPNVILQQLISWTDPRKLIGENEKAINDNYQLNFLLDIFQQFPKFDKKNIKKMILTNINAFYVSSDNDMHKLREIKEHLEDIIENEIIDTMTLNSLEKFKNTIIDCLEEAKEKSENQTKDEIESSDGEYSMILESSNIGNISDVEKDVNVEAAQFSDSENDFEDSDDDTSRKRNRSKLEESIANNTSEKLSVNEDYDSEDTNEPKNDAKDINEPEDGTKDVIMEDSVSSNVIENSKNVSFILPDNDYSSSESSMSVDDESYKEEGHHHHHH
3. GGGQCYFIPNQSLKPNECQDLKGVSHPLNSVWKTKDCEECTCGQDAISCCNTAAIPTGYDTNKCQKILNKKTCTYTVVEKKDPGKTCDVTGWVL
4. SYSKTNEAAIEKTRHIANAAVYGRPEYRYNGALNLHYRPKRTDSTLLLNGGMNLNGEVLIEGGNMIVSGRPVPHAYDHQAKREPVLENEWTDGSFKAARFTLRNHARLTAGRNTAHLDGDITAYDLSGIDLGFTQGKTPECYRSYHSGSTHCTPNAVLKAENYRALPATQVRGDITLNDRSELRLGKAHLYGSIRAGKDTAVRMEA

1. not soluble
2. soluble
3. soluble
4. not soluble
